I'd be grateful if you could share measured gMFIr Human CD8+ T cells for these entries.
# subjectOfTest: T1, human PVRIG on cells (human, UniProt Q6DKI7 1-326)
# T1 construct: whole, on cells; over-expressed on HEK cells or endogenous on Jurkat and CD8 T cells; also called hPVRIG; HEK hPVRIG cells
# T1 sequence (looked up): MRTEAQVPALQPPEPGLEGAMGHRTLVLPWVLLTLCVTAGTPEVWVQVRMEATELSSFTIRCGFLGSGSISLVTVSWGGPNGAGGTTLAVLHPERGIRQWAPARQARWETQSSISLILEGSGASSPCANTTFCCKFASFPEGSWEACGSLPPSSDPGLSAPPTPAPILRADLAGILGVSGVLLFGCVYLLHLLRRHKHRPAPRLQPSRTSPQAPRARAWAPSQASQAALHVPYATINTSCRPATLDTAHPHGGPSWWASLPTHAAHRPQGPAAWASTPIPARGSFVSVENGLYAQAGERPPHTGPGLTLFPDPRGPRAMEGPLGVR
# experimentSummary: FACS, human PBMC, CD8+ T cells, 10ug/ml
One number for each entry.

- CHA.7.514 (antibody, V domains shown) VH: EVQLRQSGADLVKPGASVKLSCTASGFNIKDTYIDWVKQRPEQGLDWIGRIDPANGNTKYDPKFQGKATIITDTSSNTAYLQLSNLTSEDTAVYYCARYGSYPYFDYWGRGTTLAVSS VL: SIVMTQTPKFLLISAGDRVTITCKASQSVRNDVAWYQQKPGQSPKLLMYYASNRYTGVPDRFTGSGYGTDFTFTISTVQAEDLAVYFCQQDYSSPPTFGGGTKLEIK: 5.15
- CHA.7.508 (antibody, V domains shown) VH: EVQLQQSGPDLVKPGASMKISCKASGYTFIDYNIHWVKQSQGKSLDWIGYIYPYNGGTGYNQKFKNKATLTVDSSSSTAYMEVRSLTFEDSAVYFCAREADYYGNRGQFDYWGQGTLVTVSA VL: DIQMTQSPASLSVSVGETVTITCRASENIFSNLAWYQQKQGKSPQLLVYGEANLADGVPSRFSGSGSGTQYSLKINSLQSEDFGNYYCQHFWGTPYTFGGGTTLEIK: 4.09

Provide each entry's gMFIr Human CD8+ T cells from the list below.
1. CHA.7.502 (antibody, V domains shown) VH: DVQLVESGGDLVQPGGSRKLSCTASGFTFSNFGMHWVRQAPEKGLEWVAYISSGSSTIYYADTVKGRFTISRDNPENTLFLQMTSLRSEDTAMYYCTRLDYYTNSYSMDHWGQGTSVTVSS VL: QIVLTQSPALMSASPGEKVTLTCSASSSLPYIYWYQQKPGSSPKPWIYLTSNLASGVPARFSGSRSGTSYSLTISSVEAEDAATYYCQQWSSNPFTFGSGTKLEIK
2. CHA.7.516 (antibody, V domains shown) VH: QVQLQQSGPELVRPGVSVKISCKVSGYTFTDYVMHWVKQSHAKSLEWIGIISPYSGNTNYNQNFKGKATMTVDKSSSTAYMALARLTSEDSAIYYCAREGDLPMFAYWGQGTLVTVSA VL: QIVLTQSPTIMSASPGEKVTMTCSASSSVSYIYWYQQNPGSSPRLLIYDTSILASGVPFRFSGSGSGTSYSLTISRMEAEDAATYYCQQWTSYPLTFGSGTKLELK
3. CHA.7.522 (antibody, V domains shown) VH: QVQLQQPGSELVRPGTSVKLSCKASGYTFTSYWVHWVRQRHGQGLEWIGNVYPGSGSTNYDEKFKSKGTLTVDTSSSTAYMHLSSLTSEDSAVYYCTRGVLRFPLDYWGQGTTLTVSS VL: DIVMTQAAPSVPVTPGESVSISCRSSKSLLHSNGNTYLYWFLQRPGQSPHLLIYRMSNLASGVPDRFSGSGSGTAFTLRISRVEAEDVGVYYCMQHLEYPLTFGAGTKLELK
4. CHA.7.510 (antibody, V domains shown) VH: QVTLKESGPGILQPSQTLSLTCSFSGFSLNTSGTGVGWIRQPSGKGLEWLTHIWWNDNKFYNTFLKSRLTISKETSNNQVFLKIASVDTADAATYYCARMAYGNLWFVNWGQGTLVAVST VL: DIVLTQSPASLAVSLGQRASISCRASRSVTISGYSYMYWYQQKPGQPPRLLFYLASNLASGVPARFSGSGSGTDFTLNIHPVEEEDAAIYYCQHSRELPYTFGGGTKLEIK

[1.41, 4.09, 1.9, 2.73]
